ASSAY_METHOD_TEXT: Aqueous solubility as a function of pH
Assay type: physicochemical
APPLIED_CONDITIONS: aqueous buffer, thermodynamic from solid; pH 4, citrate buffer
VALUE_TYPE: solubility

| MOLECULE | VALUE_TYPE | READOUT_VALUE |
| --- | --- | --- |
| CCOc1ccc2cc(C3CC(c4ccc(I)cc4)=NN3C(=O)CCCC(=O)NCCCN3CCOCC3)c(Cl)nc2c1 (centres unmarked) | solubility | 21.4 µM |
| CCOc1ccc2cc(C3CC(c4ccc(I)cc4)=NN3C(=O)CCCC(=O)O)c(Cl)nc2c1 (centres unmarked) | solubility | 0.76 µM |

====

Measurement record for full length heterotrimeric human RPA (Homo sapiens, UniProt P27694); quantity recorded: pIC50.
pIC50: −log10 of the molar value.

| MOLECULE | VALUE_COMPARATOR | pIC50 |
| --- | --- | --- |
| CCOC(=O)CCCC(=O)N1N=C(c2ccc(I)cc2)CC1c1cc2ccc(OCC)cc2nc1Cl (stereo not drawn) [Compound 30] | < | 4.60 |
| CCOc1ccc2cc(C3CC(c4ccc(I)cc4)=NN3C(=O)CCCC(=O)NCCN3CCOCC3)c(Cl)nc2c1 (stereo not drawn) [Compound 42] | = | 4.98 |
| CCOc1ccc2cc(C3CC(c4ccc(-c5ccc(Cl)nc5)cc4)=NN3C(=O)CCCC(=O)O)c(Cl)nc2c1 (stereo not drawn) [Compound 26] | = | 5.79 |
| CCOc1ccc2cc(C3CC(c4ccc(I)cc4)=NN3C(=O)CCCC(=O)NCCCN3CCOCC3)c(Cl)nc2c1 (stereo not drawn) [Compound 43] | = | 5.30 |
| CCOc1ccc2cc(C3CC(c4ccc(I)cc4)=NN3c3cccc(C(=O)O)c3)c(Cl)nc2c1 (stereo not drawn) [Compound 39] | < | 4.60 |
| CCOc1ccc2cc(C3CC(c4ccc(Br)cc4)=NN3C(=O)CCCC(=O)NCCCN3CCOCC3)c(Cl)nc2c1 (stereo not drawn) [Compound 44] | = | 5.00 |
| CCOc1ccc2cc(C3CC(c4ccc(I)cc4)=NN3C(=O)CCCCC(=O)O)c(Cl)nc2c1 (stereo not drawn) [Compound 37] | = | 5.16 |
| CCOc1ccc2cc(C3CC(c4ccc([N+](=O)[O-])cc4)=NN3C(=O)CCCC(=O)O)c(Cl)nc2c1 (stereo not drawn) [Compound 18] | < | 4.60 |
| CCOc1ccc2cc(C3CC(c4ccc(-c5ccoc5)cc4)=NN3C(=O)CCCC(=O)O)c(Cl)nc2c1 (stereo not drawn) [Compound 22] | = | 5.17 |

====

SUBJECT_OF_TEST: RPA DBD-A/B construct (His6-RPA181-422 of RPA70) (Homo sapiens)
Construct: The DBD-A/B construct was expressed as a His6-RPA181-422 fusion protein; His6 (N)
Sequence (P27694 181-422): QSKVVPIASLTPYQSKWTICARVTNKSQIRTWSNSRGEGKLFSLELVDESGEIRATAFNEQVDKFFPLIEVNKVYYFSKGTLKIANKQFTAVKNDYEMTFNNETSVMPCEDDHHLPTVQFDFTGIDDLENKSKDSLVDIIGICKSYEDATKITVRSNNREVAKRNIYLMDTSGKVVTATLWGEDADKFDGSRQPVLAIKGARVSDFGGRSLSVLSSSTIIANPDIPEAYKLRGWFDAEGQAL
ASSAY_METHOD_TEXT: EMSA, binding of RPA DBD-A/B construct to DNA
APPLIED_CONDITIONS: mean ± SD, read-out: RPAA/B IC50
// reported IC50 per item

| COMPOUND | IC50 |
| --- | --- |
| CCOc1ccc2cc(C3CC(c4ccc(-c5ccc(N6CCOCC6)cc5)cc4)=NN3C(=O)CCCC(=O)O)c(Cl)nc2c1 (centres unmarked) | 16.4 µM |
| CCOc1ccc2cc(C3CC(c4ccc(-c5cnoc5)cc4)=NN3C(=O)CCCC(=O)O)c(Cl)nc2c1 (centres unmarked) | 4.03 µM |
| CCOc1ccc2cc(C3CC(c4ccc(-c5ccc(Br)nc5)cc4)=NN3C(=O)CCCC(=O)O)c(Cl)nc2c1 (centres unmarked) | 3.32 µM |
| CCOc1ccc2cc(C3CC(c4ccc(-c5ccco5)cc4)=NN3C(=O)CCCC(=O)O)c(Cl)nc2c1 (centres unmarked) | 3.3 µM |
| CCOc1ccc2cc(C3CC(c4ccc(-c5ccc(Cl)nc5)cc4)=NN3C(=O)CCCC(=O)O)c(Cl)nc2c1 (centres unmarked) | 11.7 µM |

====

ASSAY_METHOD_TEXT: Aqueous solubility as a function of pH
Type: physicochemical
APPLIED_CONDITIONS: aqueous buffer at pH 9.5, pH 9.5, aqueous buffer, thermodynamic from solid

| COMPOUND | solubility |
| --- | --- |
| CCOc1ccc2cc(C3CC(c4ccc(I)cc4)=NN3C(=O)CCCC(=O)NCCCN3CCOCC3)c(Cl)nc2c1 (centres unmarked) | 3.62 µM |
| CCOc1ccc2cc(C3CC(c4ccc(I)cc4)=NN3C(=O)CCCC(=O)O)c(Cl)nc2c1 (centres unmarked) | 113 µM |

====

ASSAY_METHOD_TEXT: Aqueous solubility as a function of pH
Type: physicochemical
APPLIED_CONDITIONS: aqueous buffer, thermodynamic from solid; pH 7, phosphate buffer

| COMPOUND | solubility, µM |
| --- | --- |
| CCOc1ccc2cc(C3CC(c4ccc(I)cc4)=NN3C(=O)CCCC(=O)O)c(Cl)nc2c1 (centres unmarked) | 3.31 |
| CCOc1ccc2cc(C3CC(c4ccc(I)cc4)=NN3C(=O)CCCC(=O)NCCCN3CCOCC3)c(Cl)nc2c1 (centres unmarked) | 5.72 |
